Data origin: patent US9409952B2

- protocol.notes: in vivo
- condition.label: male, C57BL/6J, mouse, po, 20 mg/kg
Positions of bridges follow the written chain, without caps; N, C: chain ends. Non-standard residues stand in square brackets, D forms with d. Residues, ends and D or L forms follow the SMILES beside them. *: point of attachment. NMeF = CN[C@@H](Cc1ccccc1)C(=O)O; NMeI = CC[C@H](C)[C@H](NC)C(=O)O; NMeL = CN[C@@H](CC(C)C)C(=O)O; NMeV = CN[C@H](C(=O)O)C(C)C; NMeA = CN[C@@H](C)C(=O)O; Piperidide = C1CCN(*)CC1; Sar = CNCC(=O)O; tBu = CC(C)(C)*
measure.name: bioavailability
Please state the number and follow it with the unit.

QUERY: Quick one: bioavailability for CC[C@H](C)[C@H]1C(=O)N[C@@H]([C@@H](C)O)C(=O)N(C)CC(=O)N(C)[C@@H](CC(C)C)C(=O)N[C@H](C(=O)N2CCCCC2)CC(=O)N(C)[C@@H](C)C(=O)N[C@@H](CC(C)C)C(=O)N(C)[C@@H](CC(C)C)C(=O)N(C)[C@@H](Cc2ccccc2)C(=O)N[C@@H](C)C(=O)N(C)[C@@H](Cc2ccccc2)C(=O)N1C [DP-101] ([NMeA]L[NMeL][NMeF]A[NMeF][NMeI]T[Sar][NMeL]D-Piperidide; lactam N-11) ?
RESULT: 15.2%

QUERY: // repeat for CC(C)C[C@H]1C(=O)N2CCC[C@H]2C(=O)N(C)[C@@H](CC(C)C)C(=O)N[C@@H](C)C(=O)N(C)[C@@H](C(C)C)C(=O)N[C@H](C(=O)N2CCCCC2)CC(=O)N(C)[C@@H](C)C(=O)N[C@@H]([C@@H](C)O)C(=O)N(C)CC(=O)N(C)[C@@H](Cc2ccccc2)C(=O)N(C)[C@@H](Cc2ccccc2)C(=O)N1C [DP-67] ([NMeA]T[Sar][NMeF][NMeF][NMeL]P[NMeL]A[NMeV]D-Piperidide; lactam N-11) and report
RESULT: 15.5%

QUERY: Entry CC[C@H](C)[C@H]1C(=O)N[C@@H](COC(C)(C)C)C(=O)N(C)[C@@H](Cc2ccccc2)C(=O)N(C)[C@@H](C(C)C)C(=O)N[C@H](C(=O)N2CCCCC2)CC(=O)N(C)[C@@H](C)C(=O)N(C)[C@@H](Cc2ccccc2)C(=O)N[C@@H](CC(C)C)C(=O)N(C)[C@@H](CC(C)C)C(=O)N[C@@H]([C@@H](C)O)C(=O)N(C)CC(=O)N1C [DP-47] ([NMeA][NMeF]L[NMeL]T[Sar][NMeI]S(tBu)[NMeF][NMeV]D-Piperidide; lactam N-11) please
RESULT: 18.8%
